# study-system: BTK-GFP (Homo sapiens, UniProt Q06187+Q96SW2)
# Construct: expressed in transfected cells; host or cells: HEK293A (Invitrogen R70507), lentiviral transduction with pLenti6-BTK-GFP-Ires-RFP, blasticidin selection
# Sequence (Q06187 whole entry): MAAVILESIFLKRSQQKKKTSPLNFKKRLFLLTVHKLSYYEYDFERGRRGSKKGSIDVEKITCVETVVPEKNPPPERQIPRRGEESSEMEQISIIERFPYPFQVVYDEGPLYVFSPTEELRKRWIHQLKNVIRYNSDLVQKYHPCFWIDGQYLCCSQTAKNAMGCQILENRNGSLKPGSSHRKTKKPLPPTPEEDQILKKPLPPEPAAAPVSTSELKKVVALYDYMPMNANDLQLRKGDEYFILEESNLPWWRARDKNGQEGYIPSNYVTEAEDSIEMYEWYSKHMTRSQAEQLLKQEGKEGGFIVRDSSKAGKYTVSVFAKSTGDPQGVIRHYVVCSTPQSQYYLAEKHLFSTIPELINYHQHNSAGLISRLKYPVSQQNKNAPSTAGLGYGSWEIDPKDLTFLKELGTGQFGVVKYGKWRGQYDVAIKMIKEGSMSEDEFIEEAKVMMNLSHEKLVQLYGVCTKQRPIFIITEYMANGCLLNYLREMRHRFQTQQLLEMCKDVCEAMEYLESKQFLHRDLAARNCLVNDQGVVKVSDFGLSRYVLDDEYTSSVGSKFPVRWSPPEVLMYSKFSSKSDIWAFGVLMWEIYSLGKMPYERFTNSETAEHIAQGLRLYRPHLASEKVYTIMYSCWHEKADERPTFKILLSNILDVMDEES
# Sequence (Q96SW2 whole entry): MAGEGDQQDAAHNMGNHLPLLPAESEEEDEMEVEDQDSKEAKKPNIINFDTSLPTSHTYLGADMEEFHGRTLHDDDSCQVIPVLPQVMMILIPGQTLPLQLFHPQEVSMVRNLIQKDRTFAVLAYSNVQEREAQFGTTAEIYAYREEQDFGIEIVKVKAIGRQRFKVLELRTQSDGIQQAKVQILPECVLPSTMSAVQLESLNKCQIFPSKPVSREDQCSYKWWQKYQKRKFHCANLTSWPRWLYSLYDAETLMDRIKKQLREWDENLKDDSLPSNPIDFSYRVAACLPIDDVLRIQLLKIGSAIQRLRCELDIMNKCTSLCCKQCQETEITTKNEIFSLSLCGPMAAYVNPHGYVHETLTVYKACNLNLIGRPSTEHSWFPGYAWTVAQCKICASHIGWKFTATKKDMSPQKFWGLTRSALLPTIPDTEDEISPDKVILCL
# Sequence (Q16531 whole entry partner): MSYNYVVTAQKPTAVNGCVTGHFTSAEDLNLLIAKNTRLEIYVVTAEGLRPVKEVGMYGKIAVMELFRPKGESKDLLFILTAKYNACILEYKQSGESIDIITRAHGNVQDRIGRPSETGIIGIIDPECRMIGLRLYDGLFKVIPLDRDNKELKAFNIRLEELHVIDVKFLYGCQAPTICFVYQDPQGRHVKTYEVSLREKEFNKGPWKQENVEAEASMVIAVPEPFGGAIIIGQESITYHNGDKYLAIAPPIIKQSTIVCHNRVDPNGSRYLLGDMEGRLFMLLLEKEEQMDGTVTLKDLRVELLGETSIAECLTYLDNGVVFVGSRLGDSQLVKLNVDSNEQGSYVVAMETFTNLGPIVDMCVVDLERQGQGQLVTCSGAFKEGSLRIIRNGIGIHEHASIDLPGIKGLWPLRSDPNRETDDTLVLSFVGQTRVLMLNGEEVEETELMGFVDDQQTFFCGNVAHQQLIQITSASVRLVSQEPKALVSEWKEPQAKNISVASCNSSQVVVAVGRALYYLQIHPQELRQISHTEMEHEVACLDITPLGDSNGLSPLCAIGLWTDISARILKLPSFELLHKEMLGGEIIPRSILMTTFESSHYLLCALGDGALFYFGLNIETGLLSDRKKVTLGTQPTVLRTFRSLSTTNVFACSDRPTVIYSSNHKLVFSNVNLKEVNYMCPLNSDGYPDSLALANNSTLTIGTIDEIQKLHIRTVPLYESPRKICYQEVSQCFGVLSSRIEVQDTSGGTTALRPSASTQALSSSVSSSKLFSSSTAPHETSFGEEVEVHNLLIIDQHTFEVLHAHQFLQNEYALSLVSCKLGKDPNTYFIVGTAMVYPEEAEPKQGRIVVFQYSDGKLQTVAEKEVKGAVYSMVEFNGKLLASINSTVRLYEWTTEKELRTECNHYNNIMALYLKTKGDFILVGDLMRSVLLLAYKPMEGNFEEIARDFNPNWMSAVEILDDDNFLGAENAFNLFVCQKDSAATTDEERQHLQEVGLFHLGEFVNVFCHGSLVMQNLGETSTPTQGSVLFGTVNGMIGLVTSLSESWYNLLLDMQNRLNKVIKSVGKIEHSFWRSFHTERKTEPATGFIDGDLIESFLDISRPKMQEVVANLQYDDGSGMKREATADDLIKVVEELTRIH
# assay-comment: BTK-GFP protein abundance flow cytometry assay in HEK293A cells
# Assay type: cell-based
# experimental-context: HEK293A BTK-GFP-iresRFP cells, 24 h, GFP signal by flow cytometry; concentration at which 50% maximal degradation was observed
property: DC50 (nM)

See these solved cases before continuing.
| compound | test-result |
| --- | --- |
| COc1ccc(C(=O)N2CCC(OC3CCN(Cc4ccc(-c5cc6c(-c7cc(F)cc(NC(=O)c8ccc(C(C)(C)O)cc8F)c7C)ncnc6[nH]5)cc4)CC3)CC2)cc1N1CCC(=O)NC1=O [Compound 8] | 2.6 |
| COc1ccc(C(=O)N2CCN(CCN3CCC(OCc4ccc(-c5cc6c(-c7cc(F)cc(NC(=O)c8ccc(C(C)(C)O)cc8F)c7C)ncnc6[nH]5)cc4)CC3)CC2)cc1N1CCC(=O)NC1=O [Compound 21] | 1.8 |
| COc1ccc(C(=O)N2CCC(O[C@H]3CC[C@H](OCc4ccc(-c5cc6c(-c7cc(F)cc(NC(=O)c8ccc(C(C)(C)O)cc8F)c7C)ncnc6[nH]5)cc4)CC3)CC2)cc1N1CCC(=O)NC1=O [Compound 56] | 4 |

1. COc1ccc(C(=O)N2CCC(CCCN3CCC(Oc4ccc(-c5cc6c(-c7cc(F)cc(NC(=O)c8ccc(C(C)(C)O)cc8F)c7C)ncnc6[nH]5)cc4)CC3)CC2)cc1N1CCC(=O)NC1=O [Compound 15]
2. Cc1ccc(C(=O)N2CCC(OC3CCN(Cc4ccc(-c5cc6c(-c7cc(F)cc(NC(=O)c8ccc(C(C)(C)O)cc8F)c7C)ncnc6[nH]5)cc4)CC3)CC2)cc1N1CCC(=O)NC1=O [Compound 50]
Query: Would you kindly point out which of 1 and 2 has the smaller DC50 figure? // respond with label for picked entry
Response: 1
(1: 0.4 nM, 2: 1.2 nM)

====

# study-system: BTK-GFP (Homo sapiens, UniProt Q06187+Q96SW2)
# Construct: expressed in transfected cells; host or cells: HEK293A (Invitrogen R70507), lentiviral transduction with pLenti6-BTK-GFP-Ires-RFP, blasticidin selection
# assay-comment: BTK-GFP protein abundance flow cytometry assay in HEK293A cells
# Assay type: cell-based
# experimental-context: HEK293A BTK-GFP-iresRFP cells, 24 h, GFP signal by flow cytometry; concentration at which 50% maximal degradation was observed
property: DC50 (nM)

See these solved cases before continuing.
| compound | DC50, nM |
| --- | --- |
| Cc1c(NC(=O)c2ccc(C(C)(C)O)cc2F)cc(F)cc1-c1ncnc2[nH]c(-c3ccc(CN4CCC5(CC4)CCN(C(=O)c4ccc(F)c(N6CCC(=O)NC6=O)c4)CC5)cc3)cc12 [Compound 14] | 3.8 |
| COc1ccc(C(=O)N2CCC(CCN3CCC(OCc4ccc(-c5cc6c(-c7cc(F)cc(NC(=O)c8ccc(C(C)(C)O)cc8F)c7C)ncnc6[nH]5)cc4)CC3)CC2)cc1N1CCC(=O)NC1=O [Compound 13] | 0.8 |

A. COc1ccc(C(=O)N2CCC(CN3CCN(Cc4ccc(-c5cc6c(-c7cc(F)cc(NC(=O)c8ccc(C(C)(C)O)cc8F)c7C)ncnc6[nH]5)cc4)CC3)CC2)cc1N1CCC(=O)NC1=O [Compound 7]
B. COc1ccc(C(=O)N2CCC3(CCN(Cc4ccc(-c5cc6c(-c7cc(F)cc(NC(=O)c8ccc(C(C)(C)O)cc8F)c7C)ncnc6[nH]5)cc4)CC3)[C@H](CO)C2)cc1N1CCC(=O)NC1=O (single isomer, unassigned) [Compound 3]
C. COc1ccc(C(=O)N2CCC3(CCN(CCc4ccc(-c5cc6c(-c7cc(F)cc(NC(=O)c8ccc(C(C)(C)O)cc8F)c7C)ncnc6[nH]5)cc4)CC3)CC2)cc1N1CCC(=O)NC1=O [Compound 31]
Query: Sort entries by DC50 from minimum to maximum value. Give the order by naming the labels one after another as requested.
Response: A, C, B
